# ASSAY_EXPLANATION: Analytical RP-HPLC elution as relative measure of molecular hydrophobicity
# Assay type: physicochemical
# ASSAY_SETUP: percentage of acetonitrile at elution, analytic RP-HPLC, C18 column, linear water/acetonitrile (0.1% trifluoroacetic acid) gradient 5%-95% acetonitrile over 30 min
Non-standard residues stand in square brackets, D forms with d. Residues, ends and D or L forms follow the SMILES beside them. Nspe = C[C@H](NCC(=O)O)c1ccccc1; Nlys = NCCCCNCC(=O)O
QUANTITY: HPLC elution
# number then unit; no other words

-- ask Endpoint output: HPLC elution of C[C@@H](c1ccccc1)N(CC(N)=O)C(=O)CN(C(=O)CN(CCCCN)C(=O)CN(C(=O)CN(C(=O)CN(CCCCN)C(=O)CN(C(=O)CN(C(=O)CNCCCCN)[C@@H](C)c1ccccc1)[C@@H](C)c1ccccc1)[C@@H](C)c1ccccc1)[C@@H](C)c1ccccc1)[C@@H](C)c1ccccc1 [1 9mer, H-(NLys-Nspe-Nspe)3-NH2] (H-[Nlys][Nspe][Nspe][Nlys][Nspe][Nspe][Nlys][Nspe][Nspe]-NH2) . Value?
-- reply 60 % ACN

---
-- ask For the compound C[C@@H](c1ccccc1)N(CC(N)=O)C(=O)CN(C(=O)CN(CCCCN)C(=O)CN(C(=O)CN(C(=O)CN(CCCCN)C(=O)CN(C(=O)CN(C(=O)CN(CCCCN)C(=O)CN(C(=O)CN(C(=O)CNCCCCN)[C@@H](C)c1ccccc1)[C@@H](C)c1ccccc1)[C@@H](C)c1ccccc1)[C@@H](C)c1ccccc1)[C@@H](C)c1ccccc1)[C@@H](C)c1ccccc1)[C@@H](C)c1ccccc1 [Peptoid 1, H-(NLys-Nspe-Nspe)4-NH2] (H-[Nlys][Nspe][Nspe][Nlys][Nspe][Nspe][Nlys][Nspe][Nspe][Nlys][Nspe][Nspe]-NH2) , what HPLC elution is on record?
-- reply 65.1 % ACN
